Form field: pKi (one value per entry).
# tested.target: UniProtKB P50406
# Sequence (P50406 whole entry): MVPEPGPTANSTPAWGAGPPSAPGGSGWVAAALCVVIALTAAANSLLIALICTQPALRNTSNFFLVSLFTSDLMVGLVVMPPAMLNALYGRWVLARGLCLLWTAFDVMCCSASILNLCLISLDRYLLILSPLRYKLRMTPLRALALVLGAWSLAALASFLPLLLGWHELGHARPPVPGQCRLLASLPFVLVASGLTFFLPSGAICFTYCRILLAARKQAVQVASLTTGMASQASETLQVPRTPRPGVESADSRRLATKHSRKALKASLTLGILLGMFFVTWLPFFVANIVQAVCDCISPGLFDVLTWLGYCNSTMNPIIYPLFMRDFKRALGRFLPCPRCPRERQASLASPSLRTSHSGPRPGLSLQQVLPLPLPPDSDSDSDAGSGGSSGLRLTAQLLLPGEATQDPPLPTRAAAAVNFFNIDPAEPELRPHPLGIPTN
# log scale: pKi equals minus log10 of the concentration in mol/L

Worked cases, answers included:
{"compound": "CN1CCC[C@H]1Cc1cn(S(=O)(=O)c2ccccc2)c2ccccc12", "property.name": "pKi", "value": 8.30}
{"compound": "CN1CCC[C@H]1Cc1cn(S(=O)(=O)c2ccc(Cl)c(Cl)c2)c2ccccc12", "property.name": "pKi", "value": 7.92}
{"compound": "Cc1c(S(=O)(=O)n2cc(C[C@H]3CCCN3)c3ccccc32)sc2ccc(Cl)cc12", "property.name": "pKi", "value": 6.55}
{"compound": "Cc1ccc(S(=O)(=O)n2cc(C[C@@H]3CCCN3C)c3ccccc32)cc1", "property.name": "pKi", "value": 8.30}

Recall and state the measured pKi for `O=S(=O)(c1ccccc1)n1cc(C[C@@H]2CCCN2)c2ccccc21` . 7.56
